target: D(4) dopamine receptor (Homo sapiens); test: Inhibitory concentration against binding of [3H]spiperone to human D4 dopaminergic receptor
Sequence (P21917 whole entry): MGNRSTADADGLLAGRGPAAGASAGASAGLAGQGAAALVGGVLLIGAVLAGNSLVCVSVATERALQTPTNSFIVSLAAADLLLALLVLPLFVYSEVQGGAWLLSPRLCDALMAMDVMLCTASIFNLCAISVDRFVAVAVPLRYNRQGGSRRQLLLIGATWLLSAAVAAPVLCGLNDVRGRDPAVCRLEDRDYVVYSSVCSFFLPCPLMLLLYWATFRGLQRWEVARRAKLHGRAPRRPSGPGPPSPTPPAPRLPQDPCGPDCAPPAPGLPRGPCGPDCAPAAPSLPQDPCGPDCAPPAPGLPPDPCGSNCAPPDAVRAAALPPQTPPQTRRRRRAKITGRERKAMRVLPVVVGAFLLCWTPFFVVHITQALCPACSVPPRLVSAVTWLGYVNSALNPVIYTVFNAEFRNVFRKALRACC
Property name: IC50 (µM)
Write the number in µM without appending the unit.

In: Notebook: pull reported IC50 for D(4) dopamine receptor (Homo sapiens), entry Oc1ccc2c(c1)CCN2
Out: 39.2
